The reported measurements were obtained from ChEMBL document CHEMBL1127182.

Record form. Attribute: MIC. Fill in for each entry.
Test system: Escherichia coli
Test: Tested for antibacterial activity as minimum inhibitory concentration against Escherichia coli KL-16 in the absence of polymyxin B nonapeptide (PBMN) at 0 ug/mL
Format: functional

[Q] Given the entry CC1COc2c(N3CCN(C)CC3)c(F)cc3c(=O)c(C(=O)O)cn1c23 (stereo unspecified) , what MIC was observed with Escherichia coli?
[A] 0.0625 µg/mL

[Q] Another compound to check: "COc1cccc(-c2cc(=O)c3c(O)cc(O)cc3o2)c1"
[A] > 125 µg/mL

[Q] Another compound to check: "O=c1oc2c(O)c(O)cc3c(=O)oc4c(O)c(O)cc1c4c23"
[A] > 125 µg/mL

[Q] Another compound to check: "COc1cc2oc(-c3ccccc3)cc(=O)c2c(O)c1O"
[A] > 125 µg/mL

[Q] Another compound to check: "O=c1c(O)c(-c2ccc(O)c(O)c2)oc2cc(O)cc(O)c12"
[A] > 125 µg/mL

[Q] Another compound to check: "O=c1c(O)c(-c2cc(O)c(O)c(O)c2)oc2cc(O)cc(O)c12"
[A] > 125 µg/mL

====

Tested on: Staphylococcus epidermidis
Test: Tested for antibacterial activity as minimum inhibitory concentration against Staphylococcus epidermidis strain OC2603
Assay type: functional
quantity: MIC

[Q] What does the record list as MIC for "COc1cc2oc(-c3ccccc3)cc(=O)c2c(O)c1O" ?
[A] > 125 µg/mL

[Q] Another compound to check: O=c1c(O)c(-c2ccccc2)oc2cc(O)cc(O)c12 [GALANGIN]
[A] > 125 µg/mL

[Q] Another compound to check: "COc1cccc(-c2cc(=O)c3c(O)cc(O)cc3o2)c1"
[A] > 125 µg/mL

[Q] Another compound to check: O=c1cc(-c2ccccc2)oc2c(O)c(O)ccc12 [7,8-DIHYDROXYFLAVONE]
[A] 31.2 µg/mL

[Q] Another compound to check: O=c1cc(-c2ccc(O)cc2)oc2cc(O)cc(O)c12 [APIGENIN]
[A] > 125 µg/mL

[Q] Another compound to check: CC1COc2c(N3CCN(C)CC3)c(F)cc3c(=O)c(C(=O)O)cn1c23 (stereo not given) [OFLOXACIN]
[A] ≤ 0.5 µg/mL

[Q] Another compound to check: "O=c1c(O)c(-c2cc(O)cc(O)c2)oc2cc(O)cc(O)c12"
[A] 500 µg/mL

[Q] Another compound to check: O=c1c(O)c(-c2ccccc2)oc2ccccc12 [FLAVONOL]
[A] > 125 µg/mL

[Q] Another compound to check: O=c1c(O)c(-c2cc(O)c(O)c(O)c2)oc2cc(O)cc(O)c12 [MYRICETIN]
[A] 62.5 µg/mL

[Q] Another compound to check: O=c1c(O)c(-c2ccc(O)c(O)c2)oc2cc(O)ccc12 [FISETIN]
[A] > 125 µg/mL

[Q] Another compound to check: COc1ccc(-c2oc3cc(O)cc(O)c3c(=O)c2O)cc1 [KAEMPFERIDE]
[A] > 125 µg/mL

[Q] Another compound to check: O=c1oc2c(O)c(O)cc3c(=O)oc4c(O)c(O)cc1c4c23 [ELLAGIC ACID]
[A] > 125 µg/mL

[Q] Another compound to check: CCn1cc(C(=O)O)c(=O)c2ccc(C)nc21 [NALIDIXIC ACID]
[A] 250 µg/mL

[Q] Another compound to check: O=c1cc(-c2ccccc2)oc2cc(O)cc(O)c12 [CHRYSIN]
[A] > 125 µg/mL

[Q] Another compound to check: "COc1cc(-c2oc3cc(O)cc(O)c3c(=O)c2O)cc(OC)c1OC"
[A] > 125 µg/mL
